Reported microsomal CLint values are given for each entry in this list.
Test Protocol: Metabolic stability in rat liver microsomes assessed as intrinsic clearance measured upto 60 mins in presence of NADPH by LC-MS/MS analysis
Type: ADME, Microsome
Condition Parameters: read-out: CLH

What does the data say about its microsomal CLint? Entry: CCc1nc(N)nc(N)c1Cc1ccc(-c2cccc(C(=O)O)c2)cc1.Cl < 3 µL/min/mg

Similarly, CCc1nc(N)nc(N)c1OCCCOc1ccccc1CCC(=O)O ? < 3 µL/min/mg

Now consider the entry below.
Using the record for CCc1nc(N)nc(N)c1Cc1ccc(-c2ccc(C(=O)O)cc2)cc1.Cl , report its microsomal CLint. < 3 µL/min/mg

Reference source for all entries: ChEMBL document CHEMBL5356935
